// reported self-cleavage per item
B1: LINE1-mini (parent)
chain: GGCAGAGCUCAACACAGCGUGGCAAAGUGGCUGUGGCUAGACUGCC

# Variants of: B1
# method summary: self-cleavage, relative activity (ratio to wild type); higher = more cleavage; in vitro, sequencing; the parent is a self-cleaving ribozyme
experimental endpoint: self-cleavage

[
  {
    "variant code": "G2C G27U",
    "result value": 0.14
  },
  {
    "variant code": "G2U A25U",
    "result value": 0.08
  },
  {
    "variant code": "G44U",
    "result value": 0.32
  },
  {
    "variant code": "G27A U28A",
    "result value": 0.77
  },
  {
    "variant code": "U38C C45U",
    "result value": 1.38
  },
  {
    "variant code": "C3G G22A",
    "result value": 0.36
  },
  {
    "variant code": "G2A G19U",
    "result value": 0.72
  },
  {
    "variant code": "G1C U20G",
    "result value": 0.05
  },
  {
    "variant code": "G29A G36C",
    "result value": 0.09
  },
  {
    "variant code": "U34G G40C",
    "result value": 0.07
  },
  {
    "variant code": "C3A G44A",
    "result value": 0.91
  },
  {
    "variant code": "C3U U20C",
    "result value": 0.15
  },
  {
    "variant code": "A6G G40A",
    "result value": 0.1
  },
  {
    "variant code": "G17A G29U",
    "result value": 0.07
  },
  {
    "variant code": "C31U G35C",
    "result value": 0.04
  },
  {
    "variant code": "C8G G27U",
    "result value": 0.11
  },
  {
    "variant code": "G1A A4U",
    "result value": 0.27
  },
  {
    "variant code": "G21C U28A",
    "result value": 0.3
  },
  {
    "variant code": "C13U U28C",
    "result value": 0.28
  },
  {
    "variant code": "A14C A41U",
    "result value": 0.06
  },
  {
    "variant code": "A12G G40U",
    "result value": 0.06
  },
  {
    "variant code": "C37A U38A",
    "result value": 0.04
  },
  {
    "variant code": "G17A G35A",
    "result value": 0.04
  },
  {
    "variant code": "A6U G7C",
    "result value": 0.19
  },
  {
    "variant code": "G29U C42U",
    "result value": 0.44
  }
]

Values compiled from the RNAGym collection of RNA variant scans (doi:10.7554/elife.90254).
